Assignment: determine reported pSTAT3 (MFI) in monocytes at 1 µM for the given binders.
assayTarget: T1, IL10Rα and IL2Rγ on human primary cells (CD8 T cells, CD4 T cells, monocytes) (human) (UniProt Q13651)
T1 sequence (looked up) 1: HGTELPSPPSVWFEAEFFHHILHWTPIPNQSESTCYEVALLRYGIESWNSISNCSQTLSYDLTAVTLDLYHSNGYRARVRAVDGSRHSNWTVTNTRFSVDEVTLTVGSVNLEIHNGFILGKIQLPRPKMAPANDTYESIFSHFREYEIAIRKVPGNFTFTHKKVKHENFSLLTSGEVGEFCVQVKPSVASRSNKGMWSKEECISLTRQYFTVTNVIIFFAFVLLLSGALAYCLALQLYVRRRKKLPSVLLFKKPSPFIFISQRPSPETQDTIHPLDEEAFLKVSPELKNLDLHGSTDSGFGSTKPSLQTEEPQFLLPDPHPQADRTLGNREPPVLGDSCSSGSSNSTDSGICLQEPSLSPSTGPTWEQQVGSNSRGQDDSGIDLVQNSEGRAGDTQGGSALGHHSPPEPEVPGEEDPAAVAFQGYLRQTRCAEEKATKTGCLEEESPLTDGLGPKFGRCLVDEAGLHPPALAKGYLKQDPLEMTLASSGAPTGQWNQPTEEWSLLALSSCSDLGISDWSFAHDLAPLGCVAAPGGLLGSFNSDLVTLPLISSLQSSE
T1 sequence (looked up) 2: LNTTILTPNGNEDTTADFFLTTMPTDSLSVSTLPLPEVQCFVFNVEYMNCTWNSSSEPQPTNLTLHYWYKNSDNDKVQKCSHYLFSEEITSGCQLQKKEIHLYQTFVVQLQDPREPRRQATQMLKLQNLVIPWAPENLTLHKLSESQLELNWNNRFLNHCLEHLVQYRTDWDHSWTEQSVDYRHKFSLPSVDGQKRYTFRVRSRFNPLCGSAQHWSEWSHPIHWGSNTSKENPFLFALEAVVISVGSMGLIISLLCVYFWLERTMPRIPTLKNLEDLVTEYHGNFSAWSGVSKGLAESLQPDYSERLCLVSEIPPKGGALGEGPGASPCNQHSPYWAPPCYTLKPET
assayDetails: cell-based or functional assay
The answer is to be given in MFI; state only the numeric part.

So what's the measured pSTAT3 (MFI) in monocytes at 1 µM for this one? hIL10Ra_VHH14-hIL2Rg_VHH19, linker GGSGGS, tag his (bispecific antibody, not shown: small tags and cut ends) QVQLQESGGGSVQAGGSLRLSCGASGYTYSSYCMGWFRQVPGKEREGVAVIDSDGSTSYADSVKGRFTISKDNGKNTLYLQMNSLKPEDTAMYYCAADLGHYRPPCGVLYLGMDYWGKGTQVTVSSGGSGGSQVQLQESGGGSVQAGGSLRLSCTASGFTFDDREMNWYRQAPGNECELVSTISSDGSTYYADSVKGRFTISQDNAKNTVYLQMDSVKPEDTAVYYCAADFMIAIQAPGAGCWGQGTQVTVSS
4750

So what's the measured pSTAT3 (MFI) in monocytes at 1 µM for this one? hIL10Ra_VHH14-hIL2Rg_VHH19, linker GGGSGGGS, tag his (bispecific antibody, not shown: small tags and cut ends) QVQLQESGGGSVQAGGSLRLSCGASGYTYSSYCMGWFRQVPGKEREGVAVIDSDGSTSYADSVKGRFTISKDNGKNTLYLQMNSLKPEDTAMYYCAADLGHYRPPCGVLYLGMDYWGKGTQVTVSSGGGSGGGSQVQLQESGGGSVQAGGSLRLSCTASGFTFDDREMNWYRQAPGNECELVSTISSDGSTYYADSVKGRFTISQDNAKNTVYLQMDSVKPEDTAVYYCAADFMIAIQAPGAGCWGQGTQVTVSS
4760

So what's the measured pSTAT3 (MFI) in monocytes at 1 µM for this one? hIL10Ra_VHH14-hIL2Rg_VHH19, linker GGGS, tag his (bispecific antibody, not shown: small tags and cut ends) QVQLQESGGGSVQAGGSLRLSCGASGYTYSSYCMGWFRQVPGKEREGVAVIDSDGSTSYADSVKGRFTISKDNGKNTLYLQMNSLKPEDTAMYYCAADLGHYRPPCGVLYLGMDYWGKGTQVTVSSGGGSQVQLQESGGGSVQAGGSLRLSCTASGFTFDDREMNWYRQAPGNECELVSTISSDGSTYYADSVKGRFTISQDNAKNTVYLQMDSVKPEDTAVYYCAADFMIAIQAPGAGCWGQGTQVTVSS
4640
